Molecular target: T1, Bdf1 bromodomain 2 (GST-tagged, WT) (Saccharomyces cerevisiae (strain ATCC …, UniProt P35817))
T1 chain: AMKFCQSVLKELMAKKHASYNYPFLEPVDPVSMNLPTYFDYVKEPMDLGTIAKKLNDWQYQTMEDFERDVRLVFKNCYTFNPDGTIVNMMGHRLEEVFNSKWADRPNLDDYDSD
Assay: histone peptide array probed with recombinant GST-bromodomain, signal normalised to myc peptide control
Non-standard residues stand in square brackets, D forms with d. Primed or numbered codes have the meaning given here. No end group written: not given here. Me2a″ = asymmetric dimethylarginine (Rme2a); Arg(Me2a) = CN(C)C(=N)NCCC[C@H](N)C(=O)O; Lys(Me3) = C[N+](C)(C)CCCC[C@H](N)C(=O)O; Arg(Me2s) = CN=C(NC)NCCC[C@H](N)C(=O)O; pT = C[C@@H](OP(=O)(O)O)[C@H](N)C(=O)O; Lys(Me2) = CN(C)CCCC[C@H](N)C(=O)O; pS = N[C@@H](COP(=O)(O)O)C(=O)O; Lys(Me) = CNCCCC[C@H](N)C(=O)O
Measurement Kind: binding score

• ARTKQTARKSTGGKAPRKQ (A Rme2s T Kme3 Q T A Rme2s Kme1 S T G G K A P R K Q) = 0.00187
• SGRGKGGKGLGKGGAKRHR (pS G Rme2s G Kac G G Kac G L G K G G A K R H R) = 0.299
• SGRGKGGKGLGKGGAKRHR (pS G Rme2a G Kac G G Kac G L G K G G A K R H R) = 0.206
• PRKQLATKAA[Arg(Me2s)]K(Ac)[pS]APATGG = 0
• ARTKQTARKSTGGKAPRKQ (A Rme2a T Kme3 Q T A R Kac S T G G K A P R K Q) = 0.00758
• ART[Lys(Me3)]QTA[Arg(Me2a)][Lys(Me2)]STGGKAPRKQ = 0
• A[Arg(Me2a)]T[Lys(Me2)]QTARKSTGGKAPRKQ = 0
• ARTKQTARKSTGGKAPRKQ (A Rme2s T Kme2 Q T A Rme2a Kac S T G G K A P R K Q) = 0.0107
• ARTKQTARKSTGGKAPRKQ (A Rme2a T Kac Q T A Rme2a Kme3 S T G G K A P R K Q) = 0.00659
• PRKQLATKAA[Arg(Me2s)]K(Ac)SAPATGG = 0.081
• ARTKQTARKSTGGKAPRKQ (A Rme2s T Kme3 Q T A R Kme3 S T G G K A P R K Q) = 0
• SGRGKGGKGLGKGGAKRHR (S G R G K G G K G L G Kac G G A Kac R H R) = 0.21
• SGRGK(Ac)QGGK(Ac)ARAK(Ac)AKSRSS [H2a 1-19] = 0.394
• A[Arg(Me2a)]T[Lys(Me2)]QTA[Arg(Me2a)][Lys(Me2)]STGGKAPRKQ = 0
• KKKKKRRRRRXKKKKRK (K Kme1 Kme2 Kme3 Kac R Rme2s R Rme2a R Cit K Kme1 Kac Kme3 R K) [background 01] = 0
• ARTKQTA[Arg(Me2a)][Lys(Me3)]S[pT]GGKAPRKQ = 0
• ARTKQTARKSTGGKAPRKQ (A R T K Q T A R Kme3 S T G G K A P R K Q) = 0.00305
• ARTKQTARKSTGGKAPRKQ (A R T Kme1 Q T A Rme2a Kme3 S T G G K A P R K Q) = 0
• A[Arg(Me2a)]T[Lys(Me3)]QTA[Arg(Me2s)][Lys(Me)]STGGKAPRKQ = 0
• ARTKQTA[Arg(Me2a)]K(Me)[pS]TGGKAPRKQ = 0.00521
• PRKQLATKAAR(Me2a″)K(Ac)[pS]APATGG = 0
• ARTKQTARKSTGGKAPRKQ (A Rme2s T Kme2 Q T A Rme2s Kac S T G G K A P R K Q) = 0.0314
• ARTKQTA[Arg(Me2a)]K(Ac)S[pT]GGKAPRKQ = 0
• ARTKQTARKSTGGKAPRKQ (A Rme2s T Kme2 Q T A Rme2a Kme1 S T G G K A P R K Q) = 0
• PDPAK(Ac)SAPAPKK(Ac)G[pS]K(Ac)KAVT [H2B 1-19] = 0.181
• SGRGKGGKGLGKGGAKRHR (pS G Rme2s G K G G K G L G K G G A K R H R) = 0
• SGRGKGGKGLGKGGAKRHR (S G Rme2s G Kac G G Kac G L G Kac G G A K R H R) = 0.605

Data provenance: paper PMC5261807
